- target.system: human DLL3 protein expressed on CHO-K1 recombinant cells (human DLL3 extracellular segment fused to EpCAM transmembrane and intracellular regions) (human) (UniProt Q9NYJ7)
- Sequence (Q9NYJ7 other isoform, or with tags, fused parts or gaps limits assumed): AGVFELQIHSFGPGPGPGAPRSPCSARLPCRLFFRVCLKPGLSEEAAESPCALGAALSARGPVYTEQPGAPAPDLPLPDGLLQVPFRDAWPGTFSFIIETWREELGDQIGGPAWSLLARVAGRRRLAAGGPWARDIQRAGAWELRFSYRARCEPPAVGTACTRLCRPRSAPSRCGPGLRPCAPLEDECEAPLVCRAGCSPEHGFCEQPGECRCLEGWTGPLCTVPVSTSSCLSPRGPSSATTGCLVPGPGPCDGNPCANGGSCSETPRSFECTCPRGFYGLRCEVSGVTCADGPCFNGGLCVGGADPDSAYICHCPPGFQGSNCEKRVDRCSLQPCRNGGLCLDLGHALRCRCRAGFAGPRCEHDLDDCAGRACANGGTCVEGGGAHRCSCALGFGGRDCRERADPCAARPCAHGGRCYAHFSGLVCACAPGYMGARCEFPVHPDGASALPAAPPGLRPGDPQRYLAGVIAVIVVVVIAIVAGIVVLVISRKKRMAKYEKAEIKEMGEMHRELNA
- test.method.notes: FACS, CHO-K1 hDLL3 cells, 0.00128 nM antibody
measurement.label: MFI (MFI)
Provide only the numeric value, understood in MFI.

[[record]]
binder = "Hab014VL1VH2-hFc (scFv, part only; not given: VL-VH linker and human IgG1 Fc, V domains shown, not shown: another chain or arm of the molecule; a dimerising Fc or GST; small tags and cut ends) VL: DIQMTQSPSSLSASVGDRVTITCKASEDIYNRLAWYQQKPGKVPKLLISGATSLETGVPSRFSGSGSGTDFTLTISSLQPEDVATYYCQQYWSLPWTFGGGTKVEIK VH: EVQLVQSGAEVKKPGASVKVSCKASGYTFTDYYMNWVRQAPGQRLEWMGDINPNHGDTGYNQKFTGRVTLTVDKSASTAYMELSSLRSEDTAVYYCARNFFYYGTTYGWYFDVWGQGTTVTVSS"
readout_value = 221


For the next question, use this binder.
(Q) Give reported MFI value for Hab015VL4VH1b-hFc (scFv, part only; not given: VL-VH linker and human IgG1 Fc, V domains shown, not shown: another chain or arm of the molecule; a dimerising Fc or GST; small tags and cut ends) VL: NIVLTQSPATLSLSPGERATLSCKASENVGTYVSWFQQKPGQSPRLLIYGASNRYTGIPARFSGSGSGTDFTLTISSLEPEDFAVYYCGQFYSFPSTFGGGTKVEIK VH: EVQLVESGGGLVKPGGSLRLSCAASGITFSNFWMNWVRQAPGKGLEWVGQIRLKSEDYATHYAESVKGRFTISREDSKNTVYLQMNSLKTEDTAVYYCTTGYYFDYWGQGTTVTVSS
(A) 120
